assay summary: Oral pharmacokinetics of Lut, Lut7G and LutPs in SD rats
Type: in vivo, Sprague Dawley (SD) rats
measurement parameters: male, Sprague Dawley, 174.7 umol/kg; rat plasma, oral 174.7 µmol/kg, mean ± SE; read-out: aglyconic luteolin Cmax
outcome measure: Cmax
Kindly format the answer as number then unit.

Just so you know, measured Cmax for O=c1cc(-c2ccc(O)c(O)c2)oc2cc(O)cc(O)c12 [Lut, 3′,4′,5,7-tetrahydroxyflavone] came out at 140 nM

---

assayed target: T1, Caco-2 cell apical membrane-associated alkaline phosphatase (ALP) (Homo sapiens, UniProt P09923)
T1 construct: The Caco-2 cells (human colon adenocarcinoma, clone of Caco-2) were obtained from the Bioresource Collection and Research Center; endogenous in cells; host or cells: Caco-2 (human colon adenocarcinoma) cells, intact, 5 days in culture
T1 sequence (P09923 20-503 limits assumed): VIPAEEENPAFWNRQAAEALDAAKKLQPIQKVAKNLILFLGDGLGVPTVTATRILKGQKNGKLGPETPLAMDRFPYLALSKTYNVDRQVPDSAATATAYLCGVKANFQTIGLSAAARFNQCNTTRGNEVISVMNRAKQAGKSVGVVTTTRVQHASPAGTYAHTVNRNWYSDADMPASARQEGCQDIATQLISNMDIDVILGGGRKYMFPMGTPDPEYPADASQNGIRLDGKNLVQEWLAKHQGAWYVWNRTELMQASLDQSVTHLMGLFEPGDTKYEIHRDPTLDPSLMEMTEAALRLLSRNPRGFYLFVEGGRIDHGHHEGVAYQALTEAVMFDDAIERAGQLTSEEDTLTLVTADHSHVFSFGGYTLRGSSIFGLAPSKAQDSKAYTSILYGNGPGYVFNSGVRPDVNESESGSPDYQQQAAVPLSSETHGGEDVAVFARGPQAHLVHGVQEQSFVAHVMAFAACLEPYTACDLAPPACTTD
assay summary: Dephosphorylation by Caco-2 cell apical membrane-associated ALP
Type: cell-based
measurement parameters: Caco-2 cells, HBSS, 37 °C, 120 min incubation, initial concentration 20 μM, read-out: elimination half-life (T1/2) of dephosphorylation
outcome measure: half-life at 20 μM (min)
Answers are plain numbers, in min.

Solved entries:
compound="O=c1cc(-c2ccc(OP(=O)(O)O)c(O)c2)oc2cc(O)cc(O)c12 [Lut4′P, luteolin 4′-O-phosphate]" value_reported=27.8
compound="O=C1NC(c2ccccc2)(c2ccccc2)C(=O)N1COP(=O)(O)O [fosphenytoin]" value_reported=99.9
compound="O=c1cc(-c2ccc(OP(=O)(O)O)cc2)oc2cc(O)cc(O)c12 [Apn4′P, apigenin 4′-O-phosphate]" value_reported=64.1

Each compound below has a recorded value; state its half-life at 20 μM.
1. O=c1cc(-c2ccc(O)c(OP(=O)(O)O)c2)oc2cc(O)cc(O)c12 [Lut3′P, luteolin 3′-O-phosphate]
2. O=c1cc(-c2ccc(O)c(O)c2)oc2cc(OP(=O)(O)O)cc(O)c12 [Lut7P, luteolin 7-O-phosphate]
3. O=c1cc(-c2ccc(O)cc2)oc2cc(OP(=O)(O)O)cc(O)c12 [Apn7P, apigenin 7-O-phosphate]

[A]
41.6
17.2
43.8

---

assay summary: Oral pharmacokinetics of Apn, Apn7G and ApnPs in SD rats
Format: in vivo, Sprague Dawley (SD) rats
measurement parameters: male, Sprague Dawley, 185.02 umol/kg; rat plasma, oral 185.02 µmol/kg, mean ± SE; read-out: aglyconic Apn Cmax
outcome measure: Cmax (nM)
Answers are plain numbers, in nM.

Just so you know, measured Cmax for O=c1cc(-c2ccc(O)cc2)oc2cc(O)cc(O)c12 [Apn, 4′,5,7-trihydroxyflavone] came out at 14

---

assay summary: Stability in simulated gastric fluid (SGF) and simulated intestinal fluid (SIF)
Assay type: in vitro ADME
measurement parameters: SGF with pepsin and SIF with pancreatin pH 6.8, 125 mg/L, 37 °C
outcome measure: retained relative content after 240 min of incubation

molecule="O=c1cc(-c2ccc(O)c(OP(=O)(O)O)c2)oc2cc(O)cc(O)c12 [Lut3′P, luteolin 3′-O-phosphate]" value_reported="over 80%"
molecule="O=c1cc(-c2ccc(OP(=O)(O)O)cc2)oc2cc(O)cc(O)c12 [Apn4′P, apigenin 4′-O-phosphate]" value_reported="over 80%"
molecule="O=c1cc(-c2ccc(OP(=O)(O)O)c(O)c2)oc2cc(O)cc(O)c12 [Lut4′P, luteolin 4′-O-phosphate]" value_reported="over 80%"
